Molecular target: T1, RBM15 RRM12 (UniProt Q96T37 170-451)
T1 sequence: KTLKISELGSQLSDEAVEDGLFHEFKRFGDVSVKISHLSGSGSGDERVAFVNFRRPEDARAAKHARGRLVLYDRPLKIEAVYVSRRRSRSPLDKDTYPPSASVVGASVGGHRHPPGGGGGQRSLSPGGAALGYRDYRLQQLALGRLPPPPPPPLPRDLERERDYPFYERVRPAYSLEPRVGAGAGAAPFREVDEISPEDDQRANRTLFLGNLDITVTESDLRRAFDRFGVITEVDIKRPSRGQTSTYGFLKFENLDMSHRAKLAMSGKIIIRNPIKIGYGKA
Assay: filter binding
Parameter: Kd (nM)
Numbers only, in nM.

> print(dat)
                                     binder  numeric.result
1  GGUUCUUGAAAAGAGGACC (structured_RNA) [FIRRE RRD stem-loop (19nt)]             184

We now examine a further binder.
// Kd lookup, key: GGCCAACACUCUGGCCCAUCGGGGUGACGGCC (structured_RNA) [XIST A-repeat stem-loop (32nt)] 71
